Each recorded value in this set is attributed to patent USRE48461E1.

measurement context: cynomolgus monkey, in vivo
metric: K/L ratio

| substance | metric | readout value |
| --- | --- | --- |
| TTGATTTAATGGTTGC [ISIS 579671] (cEt/MOE gapmer chemistry, further chemistry not given here) | K/L ratio | 3.0 |
| ISIS 584468: antisense compound targeted to human AR (CATTGTACTATGCCAG; 3-10-3 (S)-cEt gapmer, further chemistry not given here) | K/L ratio | 5.2 |
| TTGATTTAATGGTTGC [ISIS 560131] (MOE and (S)-cEt gapmer chemistry, further chemistry not given here) | K/L ratio | 2.6 |
| ISIS 584269: antisense compound targeted to human AR (CCTTATGGATGCTGCT; 3-10-3 (S)-cEt gapmer, further chemistry not given here) | K/L ratio | 4.0 |

---

Tested on: AR mRNA
assay protocol: Dose-dependent antisense inhibition of human AR in HuVEC cells (electroporation, qRT-PCR RTS3559, IC50)
Assay type: cell-based
measurement context: HuVEC, ~16 h; Table 11
pIC50: −log10 of the molar value. Oligonucleotides are written 5' to 3', each unit as a sugar letter and its base; * is a phosphorothioate linkage, no mark a phosphodiester; rarer units and linkages stand in square brackets, end groups in braces. Plain capitals give the bases only. e = 2'-O-(2-methoxyethyl) (MOE); k = constrained ethyl (cEt); [5mC] = 5-methylcytosine; d = 2'-deoxy (DNA)

| substance | tested system | pIC50 |
| --- | --- | --- |
| 579671 (antisense eT*kT*kG*eA*kT*kT*dT*dA*dA*dT*dG*dG*dT*kT*kG*k[5mC]) [compound 579671] | AR mRNA | 6.54 |
| 579669 (antisense eG*kG*kT*eT*eG*kA*kT*dT*dT*dA*dA*dT*dG*dG*kT*kT) [compound 579669] | AR mRNA | 6.68 |
| 579670 (antisense eT*kG*kA*eT*kT*kT*dA*dA*dT*dG*dG*dT*dT*kG*k[5mC]*kA) [compound 579670] | AR mRNA | 6.63 |
| 579672 (antisense eG*kT*kT*eG*kA*kT*dT*dT*dA*dA*dT*dG*dG*kT*kT*kG) [compound 579672] | AR mRNA | 6.59 |
| 549458 (kG*kT*kT*dG*dA*dT*dT*dT*dA*dA*dT*dG*dG*kT*kT*kG) [compound 549458] | AR mRNA | 6.49 |

---

Tested on: AR mRNA
assay protocol: Dose-dependent antisense inhibition of human AR in HuVEC cells (electroporation, qRT-PCR RTS3559, IC50)
Assay type: cell-based
measurement context: Table 33; 187.5 nM, HuVEC, electroporation, approximately 16 hours
Oligonucleotides are written 5' to 3', each unit as a sugar letter and its base; * is a phosphorothioate linkage, no mark a phosphodiester; rarer units and linkages stand in square brackets, end groups in braces. Plain capitals give the bases only. k = constrained ethyl (cEt); [5mC] = 5-methylcytosine; d = 2'-deoxy (DNA)
metric: percent inhibition of AR, 187.5 nM (%)

| substance | readout value |
| --- | --- |
| 549458 (kG*kT*kT*dG*dA*dT*dT*dT*dA*dA*dT*dG*dG*kT*kT*kG) [compound 549458] | 61 |
| 583919 (kG*kT*kA*dG*dT*d[5mC]*dG*d[5mC]*dG*dA*d[5mC]*dT*d[5mC]*kT*kG*kG; antisense) [compound 583919] | 60 |
| 583969 (k[5mC]*k[5mC]*kT*dT*d[5mC]*dT*dT*d[5mC]*dG*dG*d[5mC]*dT*dG*kT*kG*kA; antisense) [compound 583969] | 26 |
| 583851 (kG*kT*kG*dG*dG*dA*d[5mC]*dG*d[5mC]*dA*d[5mC]*dA*dG*k[5mC]*kG*kG; antisense) [compound 583851] | 24 |
| 583918 (kA*kG*kT*d[5mC]*dG*d[5mC]*dG*dA*d[5mC]*dT*d[5mC]*dT*dG*kG*kT*kA) [compound 583918] | 47 |
| 583853 (kT*kG*k[5mC]*dA*dT*dT*d[5mC]*dG*dG*d[5mC]*d[5mC]*dA*dA*kT*kG*kG; antisense) [compound 583853] | 51 |
